# key: entry, value: solubility at 5 h
- test: Solubility test (DMSO precipitation method, Pharmacopoeia of Japan elution test second solution)
- Type: physicochemical
- condition: aqueous buffer, kinetic from dmso stock; Pharmacopoeia of Japan elution test second solution pH=6.8, room temperature, five hours; quantitation range 5 to 100 μM
- Experimental: A calibration curve solution was prepared by diluting a test substance (10 mM DMSO solution) with acetonitrile and adding acetonitrile including an internal standard substance (candesartan) so as to be 0.1, 0.4, and 2 μM. […] The calibration curve and sample solutions in the amount of 5 μL were infused into LC-MS/MS (Discovery Max manufactured by Thermo Scientific) and subjected to quantitation (quantitation range: 5 to 100 μM).
measurement_type: solubility at 5 h (µM)

compound | reading
C[C@](O)(c1cc(Cl)c(NC(=O)NCc2nc(C(F)(F)F)no2)c(Cl)c1)C(F)(F)F | 59
CC(O)(c1cc(Cl)c(NC(=O)NCc2ncccc2C(F)(F)F)c(Cl)c1)C(F)(F)F (stereo not shown) | 91
C[C@@H](NC(=O)Nc1c(Cl)cc(C(C)(O)C(F)(F)F)cc1Cl)C1CC1 (stereo partly shown) | 100
CC(O)(c1cc(Cl)c(NC(=O)NCC2(O)CCC(F)(F)CC2)c(Cl)c1)C(F)(F)F (stereo not shown) | 94
